Assignment: determine reported inhibition at 0.412 µM for the given molecules.
# assayTarget: purified human HDAC6 (Homo sapiens)
# Construct: purchased BPS Bioscience 5006
# Sequence (Q9UBN7 1-1215): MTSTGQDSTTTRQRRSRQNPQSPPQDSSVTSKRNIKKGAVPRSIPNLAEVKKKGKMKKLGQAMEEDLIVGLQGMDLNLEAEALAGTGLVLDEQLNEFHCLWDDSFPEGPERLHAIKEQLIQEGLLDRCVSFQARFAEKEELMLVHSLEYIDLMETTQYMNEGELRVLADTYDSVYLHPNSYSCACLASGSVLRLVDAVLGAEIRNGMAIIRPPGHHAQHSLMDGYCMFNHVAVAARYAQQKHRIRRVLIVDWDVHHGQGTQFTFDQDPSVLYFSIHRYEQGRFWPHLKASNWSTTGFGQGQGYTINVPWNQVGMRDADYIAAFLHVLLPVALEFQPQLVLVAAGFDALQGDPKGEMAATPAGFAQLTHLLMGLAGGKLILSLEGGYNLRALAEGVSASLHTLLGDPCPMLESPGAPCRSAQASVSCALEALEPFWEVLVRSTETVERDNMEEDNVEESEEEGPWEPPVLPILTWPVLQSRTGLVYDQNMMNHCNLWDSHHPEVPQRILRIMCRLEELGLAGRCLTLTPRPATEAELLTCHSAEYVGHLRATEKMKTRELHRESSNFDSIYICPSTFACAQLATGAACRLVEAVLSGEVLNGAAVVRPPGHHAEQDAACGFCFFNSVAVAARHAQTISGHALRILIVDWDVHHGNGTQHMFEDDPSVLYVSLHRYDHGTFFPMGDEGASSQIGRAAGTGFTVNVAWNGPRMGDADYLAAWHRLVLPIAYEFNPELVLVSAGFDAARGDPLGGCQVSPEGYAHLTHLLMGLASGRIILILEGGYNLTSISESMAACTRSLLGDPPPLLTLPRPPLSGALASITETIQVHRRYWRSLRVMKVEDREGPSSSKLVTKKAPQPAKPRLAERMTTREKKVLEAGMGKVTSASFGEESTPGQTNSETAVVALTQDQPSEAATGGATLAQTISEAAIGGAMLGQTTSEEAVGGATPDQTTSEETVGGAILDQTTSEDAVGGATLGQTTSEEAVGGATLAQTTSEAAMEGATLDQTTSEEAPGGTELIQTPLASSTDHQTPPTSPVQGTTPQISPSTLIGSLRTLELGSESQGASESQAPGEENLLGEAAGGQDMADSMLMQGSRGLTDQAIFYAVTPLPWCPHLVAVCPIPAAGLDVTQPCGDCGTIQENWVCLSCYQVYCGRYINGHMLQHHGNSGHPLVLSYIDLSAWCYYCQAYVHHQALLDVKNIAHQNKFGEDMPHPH
# measurementProtocol: HDAC6 Enzyme Assay
# Assay type: biochemical
# appliedConditions: compound concentration 0.412 μM, read-out: Percent Inhibition
One number for each entry, in %.

Solved entries (count: 4):
INSERT INTO assay_data (testsmiles, assaytarget, experimentalvalue) VALUES
  ('O=C(NO)c1ccc2ccn(CCOc3cc(C(F)(F)F)cc(C(F)(F)F)c3)c(=O)c2c1', 'purified human HDAC6 (Homo sapiens)', 86.9),
  ('O=C(NO)c1ccc2ncn(CCCc3ccccc3)c(=O)c2c1', 'purified human HDAC6 (Homo sapiens)', 93.8),
  ('Cc1ccc(OCc2nc3cc(C(=O)NO)ccc3c(=O)[nH]2)cc1', 'purified human HDAC6 (Homo sapiens)', 81.3),
  ('O=C(NO)c1ccc2ccn(CCCc3ccc(Cl)cc3)c(=O)c2c1', 'purified human HDAC6 (Homo sapiens)', 96.9);

Please find the next molecule below.
Input: Look up inhibition at 0.412 µM with purified human HDAC6 (Homo sapiens) for this molecule: O=C(NO)c1ccc2ccn(CCCOc3ccc(-c4csnn4)cc3)c(=O)c2c1
Output: 97.7

This collection of values is drawn from patent US8765773B2.
